Overview of recorded EC50, MPO release from human PMNs for various binders
# systemName: T1, C5a receptor (C5aR) expressed on the surface of human PMNs (human, UniProt P21730 1-350)
# T1 sequence (looked up): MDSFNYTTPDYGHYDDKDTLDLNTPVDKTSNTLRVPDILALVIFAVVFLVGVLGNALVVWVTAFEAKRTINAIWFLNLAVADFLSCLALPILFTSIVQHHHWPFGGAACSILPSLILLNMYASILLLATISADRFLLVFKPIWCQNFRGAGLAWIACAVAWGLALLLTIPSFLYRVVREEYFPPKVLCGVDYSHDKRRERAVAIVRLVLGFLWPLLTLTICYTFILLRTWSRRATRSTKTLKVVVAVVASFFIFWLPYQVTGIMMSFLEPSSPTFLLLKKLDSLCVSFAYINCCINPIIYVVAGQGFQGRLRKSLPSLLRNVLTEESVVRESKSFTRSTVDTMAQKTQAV
# procedureDetails: cell-based or functional assay
Where no end group is shown, it is not given here. [ ]: non-standard residue; d: D form.
readout: EC50, MPO release from human PMNs

{"columns": ["binder", "readout", "reading"],
 "data": [
  ["IPQSLDSWWTSLRVRRYSFKPMPL[dA]R (Synthetic peptide; also called RVRR-containing construct) [IPQSLDSWWTSLRVRRYSFKPMPLaR (RVRR furin-sensitive-linked C5a-active construct)]", "EC50, MPO release from human PMNs", "2.15 µM"],
  ["natural C5a (ligand, UniProt P01031 678-751, looked up, 125I label on the tracer form used in the competition assay, C5a is only a fragment of it) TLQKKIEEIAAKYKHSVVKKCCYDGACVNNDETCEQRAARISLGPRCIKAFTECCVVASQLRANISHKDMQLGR", "EC50, MPO release from human PMNs", "0.003 µM"],
  ["IPQSLDSWWTSLRRYSFKPMPL[dA]R (Synthetic peptide; also called RR-containing construct) [IPQSLDSWWTSLRRYSFKPMPLaR (double-Arg-linked C5a-active construct)]", "EC50, MPO release from human PMNs", "0.54 µM"],
  ["IPQSLDSWWTSLYSFKPMPL[dA]R (Synthetic peptide; also called C5a-active construct without linker) [IPQSLDSWWTSLYSFKPMPLaR (HBsAg CTL epitope attached directly to N-terminus of the C5a agonist)]", "EC50, MPO release from human PMNs", "1.58 µM"],
  ["YSFKPMPL[dA]RRRIPQSLDSWWTSL (Synthetic peptide) [YSFKPMPLa[…] (C5a-inactive construct, C-terminus of agonist blocked by the HBsAg CTL epitope)]", "EC50, MPO release from human PMNs", "> 1000 µM"],
  ["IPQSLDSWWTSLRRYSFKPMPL[dA]RG (Synthetic peptide)", "EC50, MPO release from human PMNs", "2.56 µM"]
]}
